Source: patent US5444042A

Attribute: t1/2 plasma
assay: Stability in plasma; type: in vitro ADME; settings: unit assumed

Take a look at these entries with their results.
[[record]]
compound = "CCC(NC(=O)C(CC(C)C)NC(=O)OCc1ccccc1)C(=O)C(=O)O (centres unmarked)"
measured = "> 60 min"

[[record]]
compound = "CCCNC(=O)C(=O)[C@H](CC)NC(=O)[C@H](CC(C)C)NC(=O)OCc1ccccc1"
measured = "> 60 min"

[[record]]
compound = "CC(C)C[C@H](NC(=O)OCc1ccccc1)C(=O)N[C@@H](Cc1ccccc1)C(=O)C(=O)NCCc1ccccc1"
measured = "> 60 min"

[[record]]
compound = "CC(C)C[C@H](NC(=O)OCc1ccccc1)C(=O)N[C@@H](Cc1ccccc1)C(=O)C(=O)OCc1ccccc1"
measured = "1.9 min"

[[record]]
compound = "CCNC(=O)C(=O)[C@H](CC)NC(=O)[C@H](CC(C)C)NC(=O)OCc1ccccc1"
measured = "> 60 min"


Recorded t1/2 plasma (compound CCCCOC(=O)C(=O)[C@H](Cc1ccccc1)NC(=O)[C@H](CC(C)C)NC(=O)OCc1ccccc1 ): 7.7 min

Note to self: t1/2 plasma recorded for CCOC(=O)C(=O)[C@H](CC)NC(=O)[C@H](CC(C)C)NC(=O)[C@H](CC(C)C)NS(=O)(=O)c1ccc(C)cc1 was 30 min

According to the records, this compound CCNC(=O)C(=O)[C@H](Cc1ccccc1)NC(=O)[C@H](CC(C)C)NC(=O)OCc1ccccc1 displays t1/2 plasma of > 60 min

====

pKi, Chym (Bos taurus, UniProt P00766): measured values
pKi: −log10 of the molar value.

[[record]]
molecule = "CCOC(=O)C(=O)[C@H](CC)NC(=O)[C@H](CC(C)C)NC(=O)OCc1ccccc1 (racemic)"
measured = "< 4.00"

[[record]]
molecule = "CCOC(=O)C(=O)C(CC)NC(=O)C(CC(C)C)NC(=O)C(CC(C)C)NS(=O)(=O)c1ccc2ccccc2c1 (stereo not drawn)"
measured = 4.46

[[record]]
molecule = "CCCCOC(=O)C(=O)C(CC)NC(=O)C(CC(C)C)NC(=O)OCc1ccccc1 (stereo not drawn)"
measured = "< 4.00"

[[record]]
molecule = "CCNC(=O)C(=O)[C@H](CC)NC(=O)[C@H](CC(C)C)NC(=O)OCc1ccccc1"
measured = "< 3.82"


Bench note, Chym (Bos taurus, UniProt P00766): entry CCC(NC(=O)C(CC(C)C)NC(=O)OCc1ccccc1)C(=O)C(=O)NCC(C)C (stereo not drawn) , its pKi = < 3.52

Entry CC[C@H](NC(=O)[C@H](CC(C)C)NC(=O)OCc1ccccc1)C(=O)C(=O)OCc1ccccc1 ; assay system Chym (Bos taurus, UniProt P00766); pKi recorded at 4.40

====

target: Calpain I from human erythrocytes (Homo sapiens, UniProt P07384); construct: Calpain I from human erythrocytes and calpain II from rabbit were assayed using Suc-Leu-Tyr-AMC; from tissue; host or cells: human erythrocytes; experiment: Calpain I Ki (Table 1B(i)); assay type: biochemical; settings: Suc-Leu-Tyr-amidomethylcoumarin, HEPES pH 7.2
Sequence (P07384 whole entry): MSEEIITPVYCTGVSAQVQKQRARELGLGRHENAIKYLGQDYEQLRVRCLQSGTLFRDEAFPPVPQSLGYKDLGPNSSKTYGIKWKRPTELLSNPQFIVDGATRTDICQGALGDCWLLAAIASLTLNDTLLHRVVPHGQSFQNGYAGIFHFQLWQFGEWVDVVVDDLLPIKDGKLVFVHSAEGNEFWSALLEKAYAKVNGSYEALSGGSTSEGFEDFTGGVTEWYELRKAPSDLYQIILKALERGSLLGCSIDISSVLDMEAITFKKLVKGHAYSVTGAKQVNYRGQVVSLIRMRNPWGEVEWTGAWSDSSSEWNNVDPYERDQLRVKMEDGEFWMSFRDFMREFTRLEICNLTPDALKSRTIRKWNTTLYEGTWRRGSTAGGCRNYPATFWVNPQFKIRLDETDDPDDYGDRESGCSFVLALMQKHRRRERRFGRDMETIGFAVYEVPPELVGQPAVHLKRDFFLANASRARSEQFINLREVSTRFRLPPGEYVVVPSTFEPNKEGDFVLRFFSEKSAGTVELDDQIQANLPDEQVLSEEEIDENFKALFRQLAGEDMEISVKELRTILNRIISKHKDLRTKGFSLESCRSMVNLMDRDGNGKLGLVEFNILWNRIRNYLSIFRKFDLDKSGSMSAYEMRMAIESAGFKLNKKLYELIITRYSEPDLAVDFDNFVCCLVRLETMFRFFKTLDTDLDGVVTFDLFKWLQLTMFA
Sequence (P04632 whole entry partner): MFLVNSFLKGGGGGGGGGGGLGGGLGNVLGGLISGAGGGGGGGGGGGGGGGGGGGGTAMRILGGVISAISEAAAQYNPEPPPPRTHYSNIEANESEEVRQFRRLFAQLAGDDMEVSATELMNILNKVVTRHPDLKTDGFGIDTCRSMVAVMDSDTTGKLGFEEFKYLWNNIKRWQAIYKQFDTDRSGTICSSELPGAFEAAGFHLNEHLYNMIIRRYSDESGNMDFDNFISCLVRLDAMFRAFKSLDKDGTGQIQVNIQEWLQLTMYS
Below: a set of entries, each annotated with reported Ki.
Value expressed in µM; do not type the unit.

Some molecules with known Ki results, for comparison:
[[record]]
molecule = "CCOC(=O)C(=O)C(CC)NC(=O)[C@H](C)NC(=O)[C@H](C)NC(=O)OCc1ccccc1 (mixture of isomers) [Z-Ala-Ala-DL-Abu-COOEt, Z-Ala-Ala-DL-Abu-CO2 Et]"
endpoint_label = "Ki"
measured = 50

[[record]]
molecule = "COC(=O)C(=O)C(C)NC(=O)C(C)NC(=O)C(C)NC(=O)OCc1ccccc1 (stereo not drawn) [Z-Ala-Ala-Ala-CO2 Me]"
endpoint_label = "Ki"
measured = 200

[[record]]
molecule = "CCOC(=O)C(=O)[C@H](CC)NC(=O)[C@H](CC(C)C)NC(=O)OCc1ccccc1 (racemic) [Z-Leu-Abu-COOEt, Z-Leu-DL-Abu-COOEt]"
endpoint_label = "Ki"
measured = 0.04


Kindly note the recorded Ki for CC(=O)N[C@@H](CC(C)C)C(=O)N[C@@H](CC(C)C)C(=O)N[C@H](C=O)CCCNC(=N)N [Leupeptin, Ac-Leu-Leu-Arg-H, reference compound] , which is 0.32

====

molecular target: Calpain II; test: Calpain II KI (Table 1B(ii))
ENDPOINT_LABEL: Ki (nM)
Your answer is read as nM, so omit the unit and give the number.

Please review the entries below; each comes with its answer.
[[record]]
molecule = "CCCCC(NC(=O)C(CC(C)C)NC(=O)OCc1ccccc1)C(=O)C(=O)OCC (stereo not shown)"
experimental_target = "Calpain II"
endpoint_label = "Ki"
unit_name = "nM"
measured = 180

[[record]]
molecule = "CCNC(=O)C(=O)[C@H](Cc1ccccc1)NC(=O)[C@H](CC(C)C)NC(=O)OCc1ccccc1"
experimental_target = "Calpain II"
endpoint_label = "Ki"
unit_name = "nM"
measured = 320

[[record]]
molecule = "CCOC(=O)C(=O)[C@H](CC)NC(=O)[C@H](CC(C)C)NC(=O)OCc1ccccc1 (racemic)"
experimental_target = "Calpain II"
endpoint_label = "Ki"
unit_name = "nM"
measured = 400


Switching to the query record.
Sure, the documented Ki for CCOC(=O)C(=O)C(CC)NC(=O)C(CC(C)C)NC(=O)C(CC(C)C)NC(=O)OCc1ccccc1 (stereo not shown) is 2600

====

Target: UniProt:P06814
Sequence (P06814 1-422): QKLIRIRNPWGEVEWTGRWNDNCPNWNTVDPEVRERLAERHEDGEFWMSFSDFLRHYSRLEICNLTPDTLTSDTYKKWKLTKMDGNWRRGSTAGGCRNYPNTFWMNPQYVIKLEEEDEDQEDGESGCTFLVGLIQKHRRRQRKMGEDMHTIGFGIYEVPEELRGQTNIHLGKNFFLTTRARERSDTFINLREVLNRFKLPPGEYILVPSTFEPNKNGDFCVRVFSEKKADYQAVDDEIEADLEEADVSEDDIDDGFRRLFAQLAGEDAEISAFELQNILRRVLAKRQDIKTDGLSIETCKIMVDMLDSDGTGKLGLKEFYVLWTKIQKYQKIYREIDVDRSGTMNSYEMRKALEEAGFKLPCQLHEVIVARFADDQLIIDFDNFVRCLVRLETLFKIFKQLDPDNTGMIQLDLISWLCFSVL
Sequence (P06813 1-266 partner): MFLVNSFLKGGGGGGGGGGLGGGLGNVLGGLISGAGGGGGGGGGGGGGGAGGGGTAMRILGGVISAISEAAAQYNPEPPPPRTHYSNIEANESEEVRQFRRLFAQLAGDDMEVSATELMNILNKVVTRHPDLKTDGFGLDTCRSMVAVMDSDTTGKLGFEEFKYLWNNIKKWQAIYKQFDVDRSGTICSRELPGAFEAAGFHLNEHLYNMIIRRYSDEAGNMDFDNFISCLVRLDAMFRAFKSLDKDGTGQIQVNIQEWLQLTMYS
Test: Calpain II Ki (Table 1B(i))
Assay type: biochemical
ENDPOINT_LABEL: Ki (nM)
Expressed in nM, but write only the number.

Data point: CC(=O)N[C@@H](CC(C)C)C(=O)N[C@@H](CC(C)C)C(=O)N[C@H](C=O)CCCNC(=N)N [Leupeptin, Ac-Leu-Leu-Arg-H, reference compound] ; Ki = 430

====

molecular target: Cathepsin B (Bos taurus); assay: Cathepsin B inhibition, Z-Arg-Arg-AFC (Table PKC1); assay type: biochemical; conditions: pH 6.0 phosphate buffer, substrate Z-Arg-Arg-AFC; read-out: Ki CB (Cathepsin B)
ENDPOINT_LABEL: Ki (µM)
Your answer should be a plain number; it is taken to be in µM.

# count of solved cases: 10
[[record]]
compound = "CCC(NC(=O)[C@H](C)NC(=O)[C@H](C)NC(=O)OCc1ccccc1)C(=O)C(=O)OCc1ccccc1 (mixture of isomers)"
experimental_target = "Cathepsin B (Bos taurus)"
endpoint_label = "Ki"
unit_name = "µM"
measured = 60

[[record]]
compound = "CCOC(=O)C(=O)C(Cc1ccccc1)NC(=O)c1ccccc1 (racemic)"
experimental_target = "Cathepsin B (Bos taurus)"
endpoint_label = "Ki"
unit_name = "µM"
measured = 64

[[record]]
compound = "CCOC(=O)C(=O)C(C)NC(=O)C(C)NC(=O)C(C)NC(=O)OCc1ccccc1 (racemic)"
experimental_target = "Cathepsin B (Bos taurus)"
endpoint_label = "Ki"
unit_name = "µM"
measured = 2.2

[[record]]
compound = "COC(=O)CCC(=O)NC(C(=O)N1CCCC1C(=O)NC(Cc1ccccc1)C(=O)C(=O)OC)C(C)C (racemic)"
experimental_target = "Cathepsin B (Bos taurus)"
endpoint_label = "Ki"
unit_name = "µM"
measured = 0.1

[[record]]
compound = "CCOC(=O)C(=O)C(CC)NC(=O)[C@H](C)NC(=O)[C@H](C)NC(=O)OCc1ccccc1 (mixture of isomers)"
experimental_target = "Cathepsin B (Bos taurus)"
endpoint_label = "Ki"
unit_name = "µM"
measured = 10

[[record]]
compound = "CCOC(=O)C(=O)C(C)NC(=O)C(Cc1ccccc1)NC(=O)OCc1ccccc1 (racemic)"
experimental_target = "Cathepsin B (Bos taurus)"
endpoint_label = "Ki"
unit_name = "µM"
measured = 3.2

[[record]]
compound = "CCCC(NC(=O)C(C)NC(=O)C(C)NC(=O)OCc1ccccc1)C(=O)C(=O)OCC (racemic)"
experimental_target = "Cathepsin B (Bos taurus)"
endpoint_label = "Ki"
unit_name = "µM"
measured = 0.1

[[record]]
compound = "CCC(NC(=O)[C@@H]1CCCN1C(=O)[C@H](C)NC(=O)[C@H](C)NC(=O)CCC(=O)OC)C(=O)C(=O)OC (mixture of isomers)"
experimental_target = "Cathepsin B (Bos taurus)"
endpoint_label = "Ki"
unit_name = "µM"
measured = 6

[[record]]
compound = "CCOC(=O)C(=O)C(C)NC(=O)[C@@H]1CCCN1C(=O)[C@H](C)NC(=O)OCc1ccccc1 (mixture of isomers)"
experimental_target = "Cathepsin B (Bos taurus)"
endpoint_label = "Ki"
unit_name = "µM"
measured = 66

[[record]]
compound = "CCOC(=O)C(=O)C(Cc1ccccc1)NC(=O)C(Cc1ccccc1)NC(=O)OCc1ccccc1 (racemic)"
experimental_target = "Cathepsin B (Bos taurus)"
endpoint_label = "Ki"
unit_name = "µM"
measured = 0.1


Pending compound:
// assay Cathepsin B (Bos taurus), entry CCCC(NC(=O)[C@H](CC(C)C)NC(=O)OCc1ccccc1)C(=O)C(=O)OCC (mixture of isomers) , Ki value = 30
